# protocol.summary: chemical genetic growth profiling, strain panel (AID 1159580);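 also: tested at 20 µM; growth read once vehicle control cultures reached saturation at 30 °C; 1 = growth at the plate median or of vehicle wells; lower values mean less growth of the strain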
# condition.context: S. cerevisiae deletion strains, growth OD, locus YPL055C, strain LGE1, active compounds read low
In all, about 5,500 compounds went through this assay and about 2,000 (36%) were called active. Roughly 18% stayed inconclusive and do not appear here. The list shows a part of the results.
Threshold check on normalized growth: strictly below 1 is yes (1); on or above 1 is no (0).

For COc1ccccc1N1CCN(CCN(C(=O)c2ccc(I)cc2)c2ccccn2)CC1 , is the recorded normalized growth below the cut-off of 1?
yes (1)

Does the reported normalized growth of CC(=O)N1CCN(c2ccc(OC[C@H]3CO[C@](Cn4ccnc4)(c4ccc(Cl)cc4Cl)O3)cc2)CC1 stay below 1?
yes (1)

Item COc1cc(NC(=S)N2CCN(c3ccccc3OC)CC2)c(OC)cc1Cl : normalized growth beneath 1, strictly?
yes (1)

Identify whether the compound N#Cc1c(Cl)cccc1N1CCCC1 records normalized growth below 1.
yes (1)

Is the reported normalized growth for CC1(C)O[C@@H]2CC3C4C[C@H](F)C5=CC(=O)CC[C@]5(C)C4[C@@H](O)C[C@]3(C)[C@]2(C(=O)CO)O1 (stereo partly specified) strictly below 1?
no (0)

Hello, I'm reviewing records and need to know if normalized growth of C[N+]1(C)C[C@H](O)[C@H](C(=O)[O-])C1 is below 1. Could you check?
no (0)

Threshold test, normalized growth < 1: NC(N)=NC(N)=Nc1cc(Cl)cc(Cl)c1
yes (1)

Quick check: does COc1ccc(-c2cc(=O)c3c(O)c(OC)c(OC)cc3o2)cc1O have normalized growth under 1?
yes (1)

I wonder whether COc1ccccc1N1CCN(CCCNc2cc(=O)n(C)c(=O)n2C)CC1 has normalized growth below 1. Can you tell?
yes (1)

Criterion: normalized growth strictly below 1. Is it met by Cc1ccc(SC(=O)c2cccnc2Oc2ccccc2)cc1 ?
yes (1)

Quick check: normalized growth of O=C(Nc1ccc(Cl)cc1)N1CCN(c2ncccc2C(F)(F)F)CC1 under 1?
yes (1)

Does the reported normalized growth of Cc1ccc(NC(=O)CC#N)c(C)c1 stay below 1?
no (0)

Input Nc1ccc(S(=O)(=O)Nc2ncccn2)cc1 ; condition: normalized growth strictly below 1. Does it hold?
yes (1)

I wonder whether CCC(=O)OCC(=O)[C@@]1(OC(=O)CC)[C@@H](C)CC2C3CCC4=CC(=O)C=C[C@]4(C)C3(F)[C@@H](O)C[C@@]21C (stereo partly specified) has normalized growth below 1. Can you tell?
yes (1)

Does NC(N)=Nc1ccc(Cl)cc1 have normalized growth strictly under 1?
no (0)

Given the entry NS(=O)(=O)c1cc2c(cc1C(F)(F)F)NC(Cc1ccccc1)NS2(=O)=O (stereo unspecified) , would its reported normalized growth be below 1?
yes (1)

Hello, I'm reviewing records and need to know if normalized growth of O=C(O)CN(CCOCCOCCN(CC(=O)O)CC(=O)O)CC(=O)O is below 1. Could you check?
no (0)

Please check: normalized growth for CCCc1nn(C)c2c(=O)[nH]c(-c3cc(S(=O)(=O)N4CCN(C)CC4)ccc3OCC)nc12 , strictly under 1 or not?
no (0)

* * *

# protocol.summary: chemical genetic growth profiling, strain panel (AID 1159580);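 also: tested at 20 µM; growth read once vehicle control cultures reached saturation at 30 °C; 1 = growth at the plate median or of vehicle wells; lower values mean less growth of the strain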
# condition.context: S. cerevisiae deletion strains, growth OD, locus YPL256C, strain CLN2, active compounds read low
The campaign covered roughly 5,500 compounds. About 2,000 (36%) were called active. Not shown: some 18% with an inconclusive outcome. The list shows a part of the results.
property.label: normalized growth
Reply with the value as a number alone.

Request the reported normalized growth associated with CSCCC(N)C(=O)NC(CC(C)C)C(=O)NC(Cc1ccccc1)C(=O)O (configuration not stated)
1.01

Param item = COc1nc(NC(C)C)nc(NC(C)C)n1 ; retrieve measured normalized growth.
1.08

Record request: normalized growth value, item C[C@H]1O[C@H](O[C@H]2[C@H](O)[C@@H](O)[C@@H](O[C@H]3[C@H](O)[C@@H](O)C(O)O[C@@H]3CO)O[C@@H]2CO)[C@H](O)[C@@H](O)[C@@H]1N[C@H]1C=C(CO)[C@@H](O)[C@H](O)[C@H]1O (some centres not stated)
0.967

GET /values?readout=normalized growth&item= CSc1nc(NC(C)C)nc(NC(C)C)n1
1.04

What value of normalized growth has been recorded for this entry: O=C(CCCN1CCC(O)(c2ccc(Cl)cc2)CC1)c1ccc(F)cc1
0.99

// query normalized growth value for entry COc1ccc(Br)c(C(=O)/C(C#N)=C/c2cccs2)c1
0.16

Which value of normalized growth has been reported for Nc1nc(/C(=C/CC(=O)O)C(=O)N[C@@H]2C(=O)N3C(C(=O)O)=CCS[C@H]23)cs1 in the records?
0.961

Would you mind telling me what normalized growth value was observed for O=C(CCCN1CCC(O)(c2ccc(Br)cc2)CC1)c1ccc(F)cc1 ?
1.02

Quick one: normalized growth of CC1=C2C(O)C(=O)OC3CC4C(C)(C)C(=O)C=C[C@]4(C)C(CC1)[C@]23C (some centres not stated) ?
1.01

// returns reported normalized growth for input CCc1ccc2c(O)c3c(cc2c1C(=O)OC)C(=O)c1c(O)ccc(O)c1C3=O
1.03

What value of measured normalized growth is listed for COC(=O)NC(=S)Nc1ccccc1NC(=S)NC(=O)OC ?
1.01

GET /values?readout=normalized growth&item= C/C=C(\C)C(=O)O[C@@H]1c2c(ccc3ccc(=O)oc23)OC(C)(C)[C@@H]1OC(C)=O
0.99

I'd like to know its normalized growth. The compound in question is CCC(=O)OCC(=O)[C@@]1(OC(=O)CC)[C@@H](C)CC2C3CCC4=CC(=O)C=C[C@]4(C)C3(F)[C@@H](O)C[C@@]21C (some centres not stated)
0.998

// query normalized growth value for entry CCCCC(=O)O[C@]1(C(=O)CO)[C@@H](C)CC2C3CCC4=CC(=O)C=C[C@]4(C)[C@@]3(F)C(O)C[C@@]21C (some centres not stated)
0.973

Endpoint output: normalized growth of C/C=C/CC(C)C(O)C1C(=O)NC(CC)C(=O)N(C)CC(=O)N(C)C(CC(C)C)C(=O)NC(C(C)C)C(=O)N(C)C(CC(C)C)C(=O)NC(C)C(=O)NC(C)C(=O)N(C)C(CC(C)C)C(=O)N(C)C(CC(C)C)C(=O)N(C)C(C(C)C)C(=O)N1C (configuration not stated) . Value?
1.02

Which normalized growth is listed for CN(C)CC[C@H](c1ccc(Cl)cc1)c1ccccn1 ?
0.985

For the compound shown here, CC[C@@]1(O)C(=O)OCc2c1cc1n(c2=O)Cc2cc3cc(O)ccc3nc2-1 , give the reported normalized growth.
0.945

May I ask what normalized growth has been recorded for CC(=O)N1CCN(c2ccc(OCC3CO[C@](Cn4ccnc4)(c4ccc(Cl)cc4Cl)O3)cc2)CC1 (some centres not stated) ?
0.182

Suppose we examine the compound NC(=O)C1(N2CCCCC2)CCN(CCCC(=O)c2ccc(F)cc2)CC1 ; what normalized growth value has been reported?
0.988

Requested read-out: normalized growth. Entry: CC(=O)[C@@]1(O)CCC2C3C=C(Cl)C4=CC(=O)[C@@H]5CC5[C@]4(C)C3CC[C@@]21C (some centres not stated)
1.04

What does the record list as normalized growth for CCCCCCCCCCCCSc1ncn[nH]1 ?
0.318

For the compound shown here, NCCCCN , give the reported normalized growth.
0.958

Dear colleague, I am looking for the recorded normalized growth of the following compound: COc1ccc(N=C2SCC(c3ccc(C)cc3)=NN2CCO)cc1
0.946

Please look up its normalized growth: COCCCOc1ccnc(CS(=O)c2nc3ccccc3[nH]2)c1C (configuration not stated)
0.897

Name the recorded normalized growth for CCOC(=O)NC(=S)Nc1ccc(C(C)(C)C)cc1NC(=S)NC(=O)OCC .
1.04

Would you kindly share the measured normalized growth for O=C1CC2(CCCC2)CC(=O)N1CCCCN1CCN(c2ncccn2)CC1 ?
0.999

Which normalized growth is reported for this compound? CC(C)C[C@@H](NC(=O)OCC1c2ccccc2-c2ccccc21)C(=O)O
0.945

So what's the measured normalized growth for this one? O=C1Nc2ccccc2/C1=C\c1c[nH]c2ccccc12
0.128

Entry O=C(NNc1cc(C(F)(F)F)cc(C(F)(F)F)c1)c1cnc2n(c1=O)CCS2 : reported normalized growth = ?
0.936

Look up normalized growth for this compound: Cc1ccc(OS(=O)(=O)c2c(Cl)sc(Cl)c2Br)c([N+](=O)[O-])n1
0.92

Name the recorded normalized growth for O=C(O)C1=CC(=C(c2ccc(O)c(C(=O)O)c2)c2ccc(O)c(C(=O)O)c2)C=CC1=O .
1.06

Field request: normalized growth | item: CC(C)Nc1nc(Cl)nc(NC(C)C)n1
0.966

Looking for the measured normalized growth of O=C(CCCN1CCC2(CC1)C(=O)NCN2c1ccccc1)c1ccc(F)cc1 , can you help?
1.02

Name the reported normalized growth value associated with the compound NC[C@@H]1O[C@H](O[C@@H]2[C@@H](CO)OC(O[C@@H]3[C@@H](O)[C@H](N)C[C@H](N)[C@H]3O[C@H]3O[C@H](CO)[C@@H](O)[C@H](O)[C@H]3N)[C@@H]2O)[C@H](N)[C@@H](O)[C@@H]1O (some centres not stated)
0.968

Reported normalized growth for CC(C)(C)NCC(O)COc1cccc2c1CCCC2=O (configuration not stated) : what is it?
0.969

I'd like to know its normalized growth. The compound in question is COC(=O)CC1C(C)(C)C(OC(C)=O)[C@@H]2[C@@H](OC(C)=O)[C@]34O[C@@]2(O)[C@]1(C)C3CC[C@]1(C)C4=CC(=O)O[C@H]1c1ccoc1 (some centres not stated)
1.04

Quick one: normalized growth for Oc1ccc2c3c1OC1[C@@H](O)CC[C@@]4(O)[C@@H](C2)N(CC2CCC2)CC[C@]314 (some centres not stated) ?
0.972
